Molecular target: mutated AR (W741C) (Homo sapiens, UniProt P10275, W742C)
Construct: expressed in transfected cells; host or cells: Cos-7
Sequence (P10275 whole entry W742C): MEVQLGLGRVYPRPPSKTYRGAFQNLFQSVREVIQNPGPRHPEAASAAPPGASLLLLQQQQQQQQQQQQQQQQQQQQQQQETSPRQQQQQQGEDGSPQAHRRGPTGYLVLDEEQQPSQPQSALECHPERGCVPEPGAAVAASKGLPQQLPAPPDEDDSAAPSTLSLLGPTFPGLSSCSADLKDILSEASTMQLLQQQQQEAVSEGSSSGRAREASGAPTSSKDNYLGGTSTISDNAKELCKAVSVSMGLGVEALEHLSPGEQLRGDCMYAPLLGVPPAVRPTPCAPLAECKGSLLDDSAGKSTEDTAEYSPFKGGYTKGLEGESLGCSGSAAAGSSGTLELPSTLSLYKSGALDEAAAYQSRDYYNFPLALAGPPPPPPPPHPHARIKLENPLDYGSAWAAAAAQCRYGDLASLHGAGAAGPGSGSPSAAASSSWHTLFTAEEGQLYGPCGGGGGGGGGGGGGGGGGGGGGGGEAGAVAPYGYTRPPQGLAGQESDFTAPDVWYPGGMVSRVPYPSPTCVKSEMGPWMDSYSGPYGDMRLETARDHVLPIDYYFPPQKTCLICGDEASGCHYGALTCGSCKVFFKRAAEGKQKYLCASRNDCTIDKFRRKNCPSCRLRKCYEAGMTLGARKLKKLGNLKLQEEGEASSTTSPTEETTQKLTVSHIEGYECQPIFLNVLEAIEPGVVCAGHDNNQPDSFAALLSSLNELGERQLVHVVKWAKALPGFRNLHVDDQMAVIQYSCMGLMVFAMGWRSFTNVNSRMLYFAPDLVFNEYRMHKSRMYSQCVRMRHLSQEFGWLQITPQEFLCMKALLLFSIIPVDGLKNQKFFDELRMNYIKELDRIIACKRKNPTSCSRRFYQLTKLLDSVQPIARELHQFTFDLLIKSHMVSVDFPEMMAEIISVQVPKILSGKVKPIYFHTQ
Test: AR transcription inhibition test (luciferase reporter in Cos-7)
Type: cell-based
Conditions: 0.1 μM compound, DHT 0.04 μM, 24 hours, luciferase activity, relative to a control
Listing of entries alongside the reported AR transcription Inhibitory rate (%) at 0.1 μM.
Value expressed in %; do not type the unit.

| smiles.text | units | quantitative.result |
| --- | --- | --- |
| Cc1c(C#N)c(-c2ccc(C#N)cc2)c(C)n1Cc1cnc(Cl)c(CO)c1 | % | 49 |
| Cc1c(C#N)c(-c2ccc(C#N)cc2)c(C)n1Cc1ccc(Cl)c(CO)c1 | % | 53 |
| CCCc1c(C#N)c(-c2ccc(C#N)cc2)c(C)n1Cc1cnc(Cl)c(CO)c1 | % | 78 |

Note to self: AR transcription Inhibitory rate (%) at 0.1 μM of `Cc1c(-c2ccc(C#N)cc2)c(C#N)c(C2CC2)n1Cc1cnc(Cl)c(CO)c1` with mutated AR (W741C) (Homo sapiens, UniProt P10275, W742C) was 78

Record `CCc1c(C#N)c(-c2ccc(C#N)cc2)c(C)n1Cc1cnc(Cl)c(CO)c1` ; system mutated AR (W741C) (Homo sapiens, UniProt P10275, W742C); AR transcription Inhibitory rate (%) at 0.1 μM = 30

Where do these numbers come from? They come from patent US20080176906A1.
